# Tested on: Neurospora crassa 846
# experiment.summary: Agar plate disc diffusion test (zone of inhibition)
# Assay type: cell-based
# condition.set: Neurospora crassa, 846; suspension in methanol 1 mg/ml, 7mm disc; 24-48 hours at 25-37° C.; read-out: Size of zone of inhibition, Neurospora crassa 846
# Description: Tables II and III give the results of the testing in vitro of the compounds of Examples 1-16 by agar-plate disc-diffusion methods. In Table II activity is measured by the size (diameter in mm.) of the observed zone of inhibition of the microorganism produced by the test compound. In Table III, activity is measured by the minimal inhibitory concentration (MIC) of the substance (μg/dic) required to inhibit growth of the test organism. […]
Numbered stars: 1 amine (or outer) side, 2 acyl side, 3 side chain; on linkers, the order of the positions; unused ones are H or OH. Bridge positions count the residues as written; N and C are the ends. Square brackets hold non-standard residues; d marks the D form. Peptide text beside a SMILES is read from it. * marks the point of attachment. Orn(4R-OH,5R-OH) = O=C([C@H](C[C@@H](O)[C@@H](O)N[*:3])N[*:1])[*:2]; hTyr(3S-OH,4S-OH) = N[C@H](C(=O)O)[C@H](O)[C@@H](O)c1ccc(O)cc1; Pro(3S-OH,4S-Me) = C[C@H]1CN[C@H](C(=O)O)[C@H]1O; Arachidoyl = CCCCCCCCCCCCCCCCCCCC(=O)*; X4 = CCCCCCCC/C=C\CCCCCCCCCC(=O)*; Hyp = O=C(O)[C@@H]1C[C@@H](O)CN1; X3 = CCCCCCCC/C=C/CCCCCCCC(=O)*; Lauroyl = CCCCCCCCCCCC(=O)*
experimental.endpoint: zone of inhibition at 1000 µg/mL (mm)

[[record]]
compound = "CCCCCCCCCCCC(=O)N[C@H]1C[C@@H](O)[C@@H](O)NC(=O)[C@@H]2[C@@H](O)[C@@H](C)CN2C(=O)[C@H]([C@@H](C)O)NC(=O)[C@H]([C@H](O)[C@@H](O)c2ccc(O)cc2)NC(=O)[C@@H]2C[C@@H](O)CN2C(=O)[C@H]([C@@H](C)O)NC1=O [Example 1] (Lauroyl-[Orn(4R-OH,5R-OH)]T[Hyp][hTyr(3S-OH,4S-OH)]T[Pro(3S-OH,4S-Me)]; lactam 1-C)"
target_of_assay = "Neurospora crassa 846"
recorded_result = 40

[[record]]
compound = "CCCCCCCC/C=C\\CCCCCCCCCC(=O)N[C@H]1C[C@@H](O)[C@@H](O)NC(=O)[C@@H]2[C@@H](O)[C@@H](C)CN2C(=O)[C@H]([C@@H](C)O)NC(=O)[C@H]([C@H](O)[C@@H](O)c2ccc(O)cc2)NC(=O)[C@@H]2C[C@@H](O)CN2C(=O)[C@H]([C@@H](C)O)NC1=O [Example 14] (X4-[Orn(4R-OH,5R-OH)]T[Hyp][hTyr(3S-OH,4S-OH)]T[Pro(3S-OH,4S-Me)]; lactam 1-C)"
target_of_assay = "Neurospora crassa 846"
recorded_result = 18

[[record]]
compound = "CCCCCCCCCCCCCCCCCCCC(=O)N[C@H]1C[C@@H](O)[C@@H](O)NC(=O)[C@@H]2[C@@H](O)[C@@H](C)CN2C(=O)[C@H]([C@@H](C)O)NC(=O)[C@H]([C@H](O)[C@@H](O)c2ccc(O)cc2)NC(=O)[C@@H]2C[C@@H](O)CN2C(=O)[C@H]([C@@H](C)O)NC1=O [Example 13] (Arachidoyl-[Orn(4R-OH,5R-OH)]T[Hyp][hTyr(3S-OH,4S-OH)]T[Pro(3S-OH,4S-Me)]; lactam 1-C)"
target_of_assay = "Neurospora crassa 846"
recorded_result = 13

[[record]]
compound = "CCCCCCCC/C=C/CCCCCCCC(=O)N[C@H]1C[C@@H](O)[C@@H](O)NC(=O)[C@@H]2[C@@H](O)[C@@H](C)CN2C(=O)[C@H]([C@@H](C)O)NC(=O)[C@H]([C@H](O)[C@@H](O)c2ccc(O)cc2)NC(=O)[C@@H]2C[C@@H](O)CN2C(=O)[C@H]([C@@H](C)O)NC1=O [Example 8] (X3-[Orn(4R-OH,5R-OH)]T[Hyp][hTyr(3S-OH,4S-OH)]T[Pro(3S-OH,4S-Me)]; lactam 1-C)"
target_of_assay = "Neurospora crassa 846"
recorded_result = 32

